- TESTED_TARGET: c-KIT D816V kinase (Homo sapiens, UniProt P10721, D816V)
- Construct: residues T544-V976 with N-terminal GST fusion
- Sequence (P10721 544-976 D816V): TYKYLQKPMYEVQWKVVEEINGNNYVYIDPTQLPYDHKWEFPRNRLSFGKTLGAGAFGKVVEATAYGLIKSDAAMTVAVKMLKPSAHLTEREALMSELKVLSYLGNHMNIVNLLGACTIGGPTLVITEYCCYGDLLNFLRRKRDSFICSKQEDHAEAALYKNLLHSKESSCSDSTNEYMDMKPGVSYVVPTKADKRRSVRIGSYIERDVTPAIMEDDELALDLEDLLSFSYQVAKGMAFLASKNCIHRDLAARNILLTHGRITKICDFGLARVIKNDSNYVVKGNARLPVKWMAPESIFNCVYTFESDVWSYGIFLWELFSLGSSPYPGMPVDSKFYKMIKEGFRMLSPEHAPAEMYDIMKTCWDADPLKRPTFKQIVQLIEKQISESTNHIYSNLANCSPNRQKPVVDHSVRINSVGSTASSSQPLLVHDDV
- MEASUREMENT_DESCRIPTION: c-KIT D816V kinase Assay
- EXPERIMENTAL_CONDITIONS: enzymatic assay, ATP 200 uM
Listing of entries alongside the reported IC50.

The examples below pair each entry with its known result.
MOLECULE | RESULT
CNc1cc2c(cn1)cc(-c1cc(NC(=O)Nc3cccc(C#N)c3)ccc1Cl)c(=O)n2C [Example 11] | > 1000 nM
CCn1c(=O)c(-c2cc(NC(=O)Nc3ccccc3)c(F)cc2Br)cc2cnc(NCCOC)cc21 [Example 51] | 100 to 1000 nM
CCn1c(=O)c(-c2cc(NC(=O)Nc3ccccc3)c(F)cc2C)cc2cnc(NC(C)=O)cc21 [Example 80] | 10 to 100 nM
CCn1c(=O)c(-c2cc(NC(=O)Nc3cc(C)cc(F)c3)c(F)cc2Cl)cc2cnc(NC)cc21 [Example 72] | 10 to 100 nM
CCn1c(=O)c(-c2cc(NC(=O)Nc3ccc(F)c(CN4CCOCC4)c3)c(F)cc2Cl)cc2cnc(NC)cc21 [Example 95] | 100 to 1000 nM
CC(=O)Nc1cc2c(cn1)cc(-c1cc(NC(=O)Nc3ccccc3)c(F)cc1Cl)c(=O)n2C(C)C [Example 86] | < 10 nM

Turning now to a further record.
Q: GET /values?readout=IC50&item= CCn1c(=O)c(-c2cc(NC(=O)Nc3ccc(F)c(CN4CCN(C)CC4)c3)c(F)cc2F)cc2cnc(NC)cc21 [Example 90]
A: > 1000 nM
